Test system: LNCaP tumor-transplanted mouse
Test: Internal radioactivity distribution using LNCaP tumor-transplanted mouse
Type: in vivo
Settings: 192 h after administration
For each of the compounds below, state its Lung.
Please respond with the number in % ID/g and leave the unit unwritten.

What is its Lung for LNCaP tumor-transplanted mouse? Entry: O=C([O-])CN(Cc1cccc(C(=O)[O-])n1)C[C@H](Cc1ccc(NC(=O)CCCCCNC(=O)CCC(=O)NCCCC[C@H](NC(=O)N[C@@H](CCC(=O)O)C(=O)O)C(=O)O)cc1)N(CC(=O)[O-])Cc1cccc(C(=O)[O-])n1.[111In+3] [[^111In]In-Octapa-1, reference compound]
0.04

What is its Lung for LNCaP tumor-transplanted mouse? Entry: O=C([O-])CN(CCN(CCc1ccc(NC(=O)CCCCCNC(=O)CCC(=O)NCCCC[C@H](NC(=O)N[C@@H](CCC(=O)O)C(=O)O)C(=O)O)cc1)CCN(CC(=O)[O-])Cc1cccc(C(=O)[O-])n1)Cc1cccc(C(=O)[O-])n1.[111In+3] [[^111In]In-Neunpa-1, reference compound]
0.20

What is its Lung for LNCaP tumor-transplanted mouse? Entry: O=C(O)CC[C@H](NC(=O)N[C@@H](CCCCNC(=O)[C@H](Cc1ccc2ccccc2c1)NC(=O)[C@H]1CC[C@H](CNC(=O)CCC(C(=O)O)N2CCN(CC(=O)O)CCN(C(CCC(=O)N[C@@H](CCCCNC(=O)CCCc3ccc(I)cc3)C(=O)O)C(=O)O)CCN(CC(=O)O)CC2)CC1)C(=O)O)C(=O)O (stereo partly drawn) [[^111In]In-PSMA-NAT-DA1, metal not drawn]
2.81

# credit: patent US20240174622A1
